Numbers sourced from ChEMBL document CHEMBL4145484.

species: Homo sapiens; assay: Selectivity index, ratio of IC50 for recombinant human MAO-A to IC50 for recombinant human MAO-B
MEASURED_PARAMETER: Ratio IC50

- COMPOUND: "C#CCNC1CCc2c(OCc3ccccc3)cccc21 (configuration not stated)"
  MEASURED_PARAMETER: "Ratio IC50"
  MEASURED_NUMBER: 7.84

[1] C#CCNC1CCc2c(OCCc3ccccc3)cccc21 (configuration not stated)
[2] C#CCNC1CCc2c(OCCCOc3ccc(C(C)C)cc3)cccc21 (configuration not stated)
Hi! Which is lower in terms of Ratio IC50, the first one 1 or the second one 2 ? Lab note: record the label of whichever item you select. 1

----------
Each record here notes measured Ratio IC50.
species: Homo sapiens; assay: Selectivity index, ratio of IC50 for recombinant human MAO-A to IC50 for recombinant human MAO-B

- COMPOUND: "C#CCNC1CCc2c(OCCCOc3ccccc3)cccc21 (centres undefined)"
  Ratio IC50: "> 5.87"
- COMPOUND: "C#CCNC1CCc2c(SCc3ccccc3)cccc21 (centres undefined)"
  Ratio IC50: "> 9.62"
- COMPOUND: "C#CCNC1CCc2c(OCCCOc3cccc(I)c3)cccc21 (centres undefined)"
  Ratio IC50: "> 3.33"

// moving on: another record for Ratio IC50
Looking up C#CCNC1CCc2c(OCc3ccc4ccccc4c3)cccc21 (centres undefined) , I found its Ratio IC50 recorded as > 9.66
